# Tested on: Saccharomyces cerevisiae BY4741 SeMeCo community
# Protocol: z-score of subpopulation abundance vs DMSO median, subpopulation auxotrophic for HU; higher = larger share of this subpopulation than in DMSO controls
# Measurement setup: 10 µM; 24 h; SM minimal medium; subpopulation (auxotrophy): HU
Recorded z-score of subpopulation abundance for the following compounds
Output spec: single numeric token, no unit.

Examples with answers:
COc1ccc2c(c1)c(CC(=O)O)c(C)n2C(=O)c1ccc(Cl)cc1    -0.04
O=C(O)c1cc(/N=N/c2ccc(O)c(C(=O)O)c2)ccc1O [Olsalazine Sodium]    -0.74
CS(=O)(=O)c1ccc([C@@H](O)[C@@H](CO)NC(=O)C(Cl)Cl)cc1    0.15
Clc1ccc(COC(Cn2ccnc2)c2ccc(Cl)cc2Cl)cc1 (configuration not stated) [Econazole]    5.61

Consider the additional compound presented here.
Tell me measured z-score of subpopulation abundance for CCN1CCCC1CNC(=O)c1cc(S(N)(=O)=O)ccc1OC (configuration not stated) [Sulpiride] please.
-0.14

----------
# Test system: Saccharomyces cerevisiae BY4741 SeMeCo community
# Protocol: z-score of subpopulation abundance vs DMSO median, subpopulation auxotrophic for L; higher = larger share of this subpopulation than in DMSO controls
# Measurement setup: 10 µM; 24 h; SM minimal medium; subpopulation (auxotrophy): L
Where a name gives a salt, the structure may show the parent alone.
Mark no (0) for z-score of subpopulation abundance values under -0.3, and yes (1) for everything at or above.

Recorded results for 4 compounds are shown here.
Clc1ccc(CCC(Cn2ccnc2)Sc2c(Cl)cccc2Cl)cc1 (stereo unspecified) [Butoconazole]    yes (1)
C[C@]12CC[C@@H]3c4ccc(O)cc4CC[C@H]3[C@@H]1C[C@@H](O)[C@@H]2O    yes (1)
CO[C@H]1O[C@@H]2O[C@@]3(C)CC[C@H]4[C@H](C)CC[C@@H]([C@H]1C)[C@@]24OO3    no (0)
O=C(c1ccc(OCCN2CCCCC2)cc1)c1c(-c2ccc(O)cc2)sc2cc(O)ccc12    yes (1)

Dear colleague, could you confirm whether CC[C@H](Nc1ncnc2[nH]cnc12)c1nc2cccc(F)c2c(=O)n1-c1ccccc1 has z-score of subpopulation abundance at or above -0.3?
no (0)

Textbook exercise: given the entry C#C[C@]1(O)CC[C@H]2[C@@H]3CCC4=CC(=O)CC[C@@H]4[C@H]3C(=C)C[C@@]21CC , state whether its z-score of subpopulation abundance is greater than or equal to -0.3.
no (0)

Check the entry C[C@]12CC[C@@H]3c4ccc(OS(=O)(=O)O)cc4CC[C@H]3[C@@H]1CCC2=O [Estropipate] : does z-score of subpopulation abundance equal or exceed -0.3?
no (0)

Check the entry COc1ccnc(C[S+]([O-])c2nc3cc(OC(F)F)ccc3[nH]2)c1OC (stereo unspecified) [Pantoprazole sodium] : does z-score of subpopulation abundance equal or exceed -0.3?
no (0)

Has CCOC(=O)c1ccc(O)cc1 a recorded z-score of subpopulation abundance greater than or equal to -0.3?
no (0)

Does z-score of subpopulation abundance meet or surpass -0.3 for CNCC[C@H](Oc1cccc2ccccc12)c1cccs1 [Duloxetine HCl] ?
no (0)

Reported z-score of subpopulation abundance at or above -0.3? CCC(C)(C)C(=O)O[C@H]1C[C@@H](C)C=C2C=C[C@H](C)[C@H](CC[C@@H]3C[C@@H](O)CC(=O)O3)[C@H]21
yes (1)

Hi team, for O=C(Nc1cccc(C2=NCCN2)c1)Nc1cccc(C2=NCCN2)c1 [Imidocarb dipropionate] , is the recorded z-score of subpopulation abundance at or above -0.3?
yes (1)

Is z-score of subpopulation abundance for C[N+](C)(C)CCOC(=O)CCC(=O)OCC[N+](C)(C)C [Succinylcholine Chloride Dihydrate] at or above -0.3?
no (0)

Test whether the compound O=C(O)c1cc(-c2ccc(F)cc2F)ccc1O records z-score of subpopulation abundance of -0.3 or higher.
yes (1)

State whether the measured z-score of subpopulation abundance reaches -0.3, counting equality as reaching it, for COc1cccc2c1C(=O)c1c(O)c3c(c(O)c1C2=O)C[C@@](O)(C(=O)CO)C[C@@H]3O[C@H]1C[C@H](N)[C@H](O[C@@H]2CCCCO2)[C@H](C)O1
yes (1)

hey, is z-score of subpopulation abundance for this one >= -0.3? CC1(C)S[C@@H]2[C@H](NC(=O)Cc3ccccc3)C(=O)N2[C@H]1C(=O)O.CCN(CC)CCOC(=O)c1ccc(N)cc1
yes (1)

----------
# Tested on: Saccharomyces cerevisiae BY4741 SeMeCo community
# Protocol: z-score of subpopulation abundance vs DMSO median, subpopulation auxotrophic for HLU; higher = larger share of this subpopulation than in DMSO controls
# Measurement setup: 10 µM; 24 h; SM minimal medium; subpopulation (auxotrophy): HLU
Counter-ions that a name gives are not always drawn.
Short version: z-score of subpopulation abundance at least 0.2 is satisfied, less is not satisfied.

Please review the entries below; each comes with its answer.
Nc1nc(O)c2ncn(CCC(CO)CO)c2n1    not satisfied
COc1cc([C@@H]2c3cc4c(cc3[C@@H](O[C@@H]3O[C@@H]5CO[C@@H](C)O[C@H]5[C@H](O)[C@H]3O)[C@H]3COC(=O)[C@H]23)OCO4)cc(OC)c1O [Etoposide]    satisfied

Hi team, for CCC(=O)NS(=O)(=O)c1ccc(-c2c(-c3ccccc3)noc2C)cc1 [Parecoxib] , is the recorded z-score of subpopulation abundance at or above 0.2?
not satisfied

Item CC1(C)S[C@@H]2[C@H](NC(=O)C(c3ccccc3)S(=O)(=O)O)C(=O)N2[C@H]1C(=O)O (stereo partly specified) [Sulbenicillin Sodium] with z-score of subpopulation abundance of 0.2 or above?
satisfied

Decide: is the reported value of z-score of subpopulation abundance for Cc1cc(C)nc(NS(=O)(=O)c2ccc(N)cc2)n1 [Sulfamethazine Sodium Salt] equal to or greater than 0.2?
not satisfied

# bool: z-score of subpopulation abundance of CCN(CC)C(=O)N1CCN(C)CC1 [Diethylcarbamazine citrate] >= 0.2
not satisfied

----------
# Test system: Saccharomyces cerevisiae BY4741 SeMeCo community
# Protocol: z-score of subpopulation abundance vs DMSO median, subpopulation auxotrophic for HLUM; higher = larger share of this subpopulation than in DMSO controls
# Measurement setup: 10 µM; 24 h; SM minimal medium; subpopulation (auxotrophy): HLUM
Structures can show the parent of a compound that is named as a salt.
Readings of z-score of subpopulation abundance for the listed compounds
The response must contain the number and no unit.

Cc1cc(/C=C/c2ccc3cc(N(C)C)ccc3[n+]2C)c(C)n1-c1ccccc1 [pyrvinium]    -0.49
CNCc1cc(-c2ccccc2F)n(S(=O)(=O)c2cccnc2)c1 [Vonoprazan Fumarate (TAK-438)]    -0.37
CCOC(=O)C1=C[C@@H](OC(CC)CC)[C@H](NC(C)=O)[C@@H](N)C1 [Oseltamivir Phosphate]    0.24
C[C@H]1O[C@@H](O[C@H]2[C@@H](O)C[C@H](O[C@H]3[C@@H](O)C[C@H](O[C@H]4CC[C@@]5(C)[C@H](CC[C@@H]6[C@@H]5C[C@@H](O)[C@]5(C)[C@@H](C7=CC(=O)OC7)CC[C@]65O)C4)O[C@@H]3C)O[C@@H]2C)C[C@H](O)[C@@H]1O [Digoxin]    -0.34
CCn1cc(C(=O)O)c(=O)c2cc(F)c(N3CCNC(C)C3)c(F)c21 (stereo unspecified) [Lomefloxacin HCl]    0.54

Provide only the value of recorded z-score of subpopulation abundance for C(=C\c1ccccc1)/CN1CCN(C(c2ccccc2)c2ccccc2)CC1 [Cinnarizine]
0.66

Consider the compound COc1ccc(C[C@H](N)C(=O)N[C@H]2[C@@H](O)[C@H](n3cnc4c(N(C)C)ncnc43)O[C@@H]2CO)cc1 [Puromycin 2HCl] and give its recorded z-score of subpopulation abundance.
-0.22

Return z-score of subpopulation abundance (reported value) for this compound: CC(C)[N+](C)(CCOC(=O)C1c2ccccc2Oc2ccccc21)C(C)C [Propantheline bromide]
-0.56

Fill in z-score of subpopulation abundance for record CC(=O)Oc1ccccc1C(=O)O [Aspirin]
-0.5

Entry CN1C[C@@H]2C[C@H]1CN2c1cc2c(cc1F)c(=O)c(C(=O)O)cn2C1CC1 [Danofloxacin Mesylate] needs its z-score of subpopulation abundance filled in; supply it.
-0.14

Using the record for NC(=O)N1c2ccccc2C=Cc2ccccc21 [Carbamazepine] , state its measured z-score of subpopulation abundance.
-0.25

Please report z-score of subpopulation abundance for the following compound: Cc1onc(-c2c(Cl)cccc2Cl)c1C(=O)N[C@@H]1C(=O)N2[C@@H]1SC(C)(C)[C@@H]2C(=O)O [Dicloxacillin Sodium]
1.07

Give the value of z-score of subpopulation abundance reported for the following: COc1ccc2cc(CCC(C)=O)ccc2c1 [Nabumetone]
-1.51

Specify z-score of subpopulation abundance for Cc1cc(O)cc(C)c1Cl [Chloroxylenol] and stop.
0.12

Check the records and state z-score of subpopulation abundance for Cc1c(OCC(F)(F)F)ccnc1C[S@@+]([O-])c1nc2ccccc2[nH]1 [Dexlansoprazole]
-0.54

Name the recorded z-score of subpopulation abundance of the compound listed here: CC[C@H]1OC(=O)[C@H](C)[C@@H](O[C@H]2C[C@@](C)(OC)[C@@H](O)[C@H](C)O2)[C@H](C)[C@@H](O[C@@H]2O[C@H](C)C[C@H](N(C)C)[C@H]2O)[C@](C)(O)C[C@@H](C)C(=O)[C@H](C)[C@H]2OC(=O)O[C@@]21C [Erythromycin Cyclocarbonate]
0.39
